I'd be grateful if you could share measured GI50 for these entries.
Test system: SK-MEL-28
Assay: NCI tumour cell line growth inhibition, 48 h
Activity calls are given as the source filed them. Cut-off read from the data, not from the text of the source: active = GI50 up to about 1.1 µM and inactive = higher.

Solved entries:
compound: N=C(NNS(=O)(=O)c1ccccc1)Oc1ccc(Cl)cc1
GI50: > 100 µM (inactive)
--
compound: COc1cc(OCc2ccc3oc(=O)c(-c4ccccc4)nc3c2)cc(OC)c1OC
GI50: > 100 µM (inactive)
--
compound: CCOC(=O)c1[nH]cc(C)c1-c1ccc2c(-c3ccccc3)nc3ccccc3n12
GI50: 3.89 µM (inactive)
--
compound: COC(=O)C(=O)C(C(=O)C(=O)Nc1ccccc1C(N)=O)c1nc2ccc(C(=O)c3ccccc3)cc2nc1O (stereo unspecified)
GI50: > 100 µM (inactive)
--
compound: NC(Cc1ccccc1)c1nccs1 (stereo unspecified)
GI50: > 100 µM (inactive)
--
compound: CCOC1CC(=O)c2c(Br)sc(Br)c21 (stereo unspecified)
GI50: 19.6 µM (inactive)

Hi! Can you tell me GI50 for each of these compounds?
1. CCCCC1=CC1(C#N)[N+](=O)[O-] (stereo unspecified)
2. CC(=O)/N=C1/N(/C=C2\C(=O)Oc3ccccc3C2=O)C(=O)/C(=C/c2ccc(NC(C)=O)cc2)N1C
3. O=C(O)c1ccc(NNc2cc(=O)[nH]c(=O)[nH]2)cc1
4. CC1(c2cccc3ccccc23)OC(=O)c2ccccc21 (stereo unspecified)
5. COc1ccc(CC2C3=C(CCN2C(=O)C2CCC2)CC2(CC3)OCCO2)cc1O (stereo unspecified)
6. CCc1n[nH]c(=O)n1-n1c(C)ccc1C

1. > 100 µM (inactive)
2. > 100 µM (inactive)
3. > 100 µM (inactive)
4. 27 µM (inactive)
5. 55.2 µM (inactive)
6. > 100 µM (inactive)

====

Tested on: EKVX
Experiment: NCI tumour cell line growth inhibition, 48 h
Calls of active or inactive are those of the source. Cut-off read from the data, not from the text of the source: active = GI50 up to about 1.1 µM and inactive = higher.
measured_attribute: GI50

molecule: O=C(/C=C/c1ccc(O)c(O)c1)OCCCOC(=O)/C=C/c1ccc(O)c(O)c1
assayed_target: EKVX
result: 33.4 µM (inactive)

Hi! Can you tell me GI50 for each of these molecules?
1. O=c1[nH]n2c(=O)cc[nH]c2c1-c1nnns1
2. O=C(CCc1cc(O)cc(O)c1)NCCc1cc(O)cc(OCc2ccccc2)c1
3. O=C(Nc1cccc2ccccc12)Nn1cnnc1
4. CC(C)(C)C(=O)OCC1OC(N=[N+]=[N-])C(OC(=O)C(C)(C)C)C(OC(=O)C(C)(C)C)C1OC(=O)C(C)(C)C (stereo not given)

1: > 100 µM (inactive); 2: 57.3 µM (inactive); 3: > 100 µM (inactive); 4: > 100 µM (inactive)

====

System: SR
Assay: NCI tumour cell line growth inhibition, 48 h
Active and inactive are the calls of the source. Rule as the data show it: active = GI50 up to about 1.1 µM and inactive = higher.
measured_attribute: GI50

Solved entries:
molecule: Nc1nc(N)nc(-c2cnccn2)n1
result: > 100 µM (inactive)
//
molecule: CCCSc1cc(Cl)c(C)cc1S(=O)(=O)n1ccnc1O
result: > 100 µM (inactive)
//
molecule: Cc1c(N2C(=O)C(Cl)C2c2ccc(Cl)cc2)c(=O)n(-c2ccccc2)n1C (stereo not given)
result: 26.4 µM (inactive)
//
molecule: c1nc2cscc2c2cscc12
result: > 100 µM (inactive)

Hi! Can you tell me GI50 for each of these molecules?
1. CCOC(=O)c1cc(C)n(CN(CCO)Cn2nc(C(=O)OCC)cc2C)n1
2. CCOC(=O)CCC(NC(=O)c1ccc(Nc2cnc3cc(C(F)(F)F)ccc3n2)cc1)C(=O)OCC (stereo not given)
3. CCN(CC)CCOc1ccc(N2Cc3ccccc3C2=O)cc1

1. 28.6 µM (inactive)
2. > 100 µM (inactive)
3. > 10 µM (inactive)

Hi! Can you tell me GI50 for each of these molecules?
1. OC1CC(O)c2c(Cl)sc(Cl)c21 (stereo not given)
2. COc1cc2c(cc1OCc1ccccc1)NC(=S)[C@@H]1CCCN1C2=S
3. CC(=O)NC1C(OCc2ccccc2)OC(CO)C(O)C1OCC(=O)N[C@@H](C)C(=O)N[C@H](CCC(=O)NCCCNc1ccc([N+](=O)[O-])c2[nH]c3ccccc3c(=O)c12)C(N)=O (stereo not given in full)

1: > 100 µM (inactive); 2: 48.5 µM (inactive); 3: > 100 µM (inactive)
